Attribute: Pigweed plant response rating (0 to 100 scale, 0 is no effect, 100 is complete control)
tested on: pigweed (Amaranthus retroflexus); assay: Test A preemergence; format: in vivo; settings: Preemergence, 500 g ai/ha, visual injury approx. 10 d
Excerpt: […]
Lab note: jot down the number only; don't add units.

Sample answers from the record:
In [3]: df
Out[3]:
                                   compound  val
0  O=C1NCC(c2cccc(OC(F)F)c2)C1C(=O)Nc1ccccc1OC(F)F (stereo not shown)   40
1  O=C1NCC(c2c(F)cccc2F)C1C(=O)Nc1ccc(F)cc1F (racemic)    0

Sample CN1CC(c2ccc(C(F)(F)F)cc2F)C(C(=O)Nc2ccccc2F)C1=O (stereo not shown) ; Pigweed plant response rating (0 to 100 scale, 0 is no effect, 100 is complete control) observed: 80

Sample O=C1NCC(c2ccc(C3CC3)cc2)C1C(=O)Nc1cccc(F)c1F (racemic) ; Pigweed plant response rating (0 to 100 scale, 0 is no effect, 100 is complete control) observed: 20

###

Attribute: pest or weed control at 62.5 g/ha
test system: velvetleaf (Abutilon theophrasti); experiment: Test G Pre-Emergence Protocol; assay type: in vivo; conditions: Abutilon theophrasti, pre-emergence, 312 h, 62.5 g ai/ha, evaluated after 13 days, 100=total damage to plant, 0=no damage to plant, read-out: Velvetleaf damage rating
Write down the numeric answer in % and omit the unit.

Sample answers from the record:
>>> print(df.to_string())
                                   compound  u  val
0  CN1C[C@H](c2cccc(C(F)(F)F)c2)[C@@H](C(=O)Nc2cccnc2F)C1=O (racemic)  %    0
1  Cc1cc(C#N)cc(C2CN(C)C(=O)C2C(=O)Nc2cccc(F)c2F)c1 (stereo not drawn)  %   40

Sample COc1ncc([C@@H]2CN(C)C(=O)[C@H]2C(=O)Nc2cccc(F)c2F)cc1Cl (racemic) ; pest or weed control at 62.5 g/ha observed: 20

Sample C=Cc1cccc([C@@H]2CN(C)C(=O)[C@H]2C(=O)Nc2cccc(F)c2F)c1 (racemic) ; pest or weed control at 62.5 g/ha observed: 0

Sample CON1C[C@H](c2ccc(C(F)(F)F)cc2)[C@@H](C(=O)Nc2cccc(F)c2F)C1=O (racemic) ; pest or weed control at 62.5 g/ha observed: 0

Sample CN1CC(c2cc(F)c(Cl)c(F)c2)C(C(=O)Nc2cccc(F)c2F)C1=O (stereo not drawn) ; pest or weed control at 62.5 g/ha observed: 0

Sample CN1C[C@H](c2ccc(C(F)F)cc2)[C@@H](C(=O)Nc2cnccc2C(F)(F)F)C1=O (racemic) ; pest or weed control at 62.5 g/ha observed: 50

Sample CC(C)OC(=O)c1cc([C@H]2CN(C)C(=O)[C@@H]2C(=O)Nc2ccccc2F)ccc1F (racemic) ; pest or weed control at 62.5 g/ha observed: 0

Sample CN1C[C@H](c2ccnc(C(C)(C)C)n2)[C@@H](C(=O)Nc2cccc(F)c2F)C1=O (racemic) ; pest or weed control at 62.5 g/ha observed: 0

Sample C=C(C)c1ccccc1NC(=O)[C@H]1C(=O)N(C)C[C@@H]1c1cccc(C(F)(F)F)c1 (racemic) ; pest or weed control at 62.5 g/ha observed: 10

Sample CN1C[C@H](c2cccc(C(F)(F)F)c2)[C@@H](C(=O)Nc2cc(O)ccc2F)C1=O (racemic) ; pest or weed control at 62.5 g/ha observed: 0

Sample CCOc1cc(C2CN(C)C(=O)C2C(=O)Nc2cccc(F)c2F)cc(C(F)(F)F)c1 (stereo not drawn) ; pest or weed control at 62.5 g/ha observed: 0

Sample COC(=O)c1cc([C@H]2CN(C)C(=O)[C@@H]2C(=O)Nc2cccc(F)c2F)ccc1C (racemic) ; pest or weed control at 62.5 g/ha observed: 10

Sample Cc1cc([C@H]2CN(C)C(=O)[C@@H]2C(=O)Nc2ccccc2S(C)(=O)=O)cc(C(F)(F)F)c1 (racemic) ; pest or weed control at 62.5 g/ha observed: 0

Sample Cc1cc(C2CN(C)C(=O)C2C(=O)Nc2cccc(F)c2F)cc(C(F)(F)F)c1 (stereo not drawn) ; pest or weed control at 62.5 g/ha observed: 0

Origin of values: patent US12077503B2
